ASSAYED_TARGET: T1, human IL-2Rβ (CD122 protein, Fc Tag) (27-239) (human, UniProt P14784 27-239)
T1 construct: range 27-239; Bought protein; also called hu-IL-2Rβ subunit; IL-2Rβ subunit; not shown: Fc tag of the bought protein
T1 sequence (looked up): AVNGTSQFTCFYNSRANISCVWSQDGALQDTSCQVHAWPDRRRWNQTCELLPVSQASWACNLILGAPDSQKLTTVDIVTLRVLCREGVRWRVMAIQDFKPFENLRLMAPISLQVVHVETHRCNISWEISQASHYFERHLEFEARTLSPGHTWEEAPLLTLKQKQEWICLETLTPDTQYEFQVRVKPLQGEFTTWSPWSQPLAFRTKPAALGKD
METHOD_SUMMARY: competition ELISA, peptide tracer
ASSAY_READOUT: IC50

The recorded IC50 for SEQ ID NO 4178 (peptide) peptide: GGELLVDCFKVKVGELCDLFFGPAPAPAPAPAPAPAPAGVVCQDWEGVELCWQGG is < 100 µM

Entry GGRYVHDCFAAQVGDLCDLFLHGG [SEQ ID NO 3170] ; IC50 = < 100 µM

The reported value for SEQ ID NO 4181 (peptide) peptide: GGELLVDCFRVRVGELCDLFFGPAPAPAPAPAPAPAPAGVVCQDWEGVELCWQGG in terms of IC50 is < 100 µM
